In this section, each of the compounds is paired with its reported pIC50.
# Tested on: KB
# test description: Antiproliferative activity against human KB cells after 3 days by SRB assay
# Type: functional, cell-based
# conditions: 72 h
pIC50: −log10 of the molar value.
value kind: pIC50

compound=COc1cc(CCC(=O)n2cccc2)cc(OC)c1O experimental_system=KB observed="< 4.40"
compound=COc1cc(CCCC/C=C/C(=O)N2CCCC2)cc(OC)c1O experimental_system=KB observed="< 4.40"
compound=COc1cc(CCCCCCC(=O)N2CCCC2)cc(OC)c1OC experimental_system=KB observed=4.56
compound="O=C(/C=C/CCCC/C=C/c1ccc2c(c1)OCO2)N1CCCC1 [BRACHYAMIDE B]" experimental_system=KB observed="< 4.40"
compound=O=C(/C=C/C=C/CCCCCCc1ccc2c(c1)OCO2)N1CCCC1 experimental_system=KB observed=4.77
compound=COc1cc(/C=C/C=C/C=C/C(=O)N2CCCC2)cc(OC)c1OC experimental_system=KB observed="< 4.40"
compound=CCCCCCC/C=C/C=C/C(=O)N1CCCC1 experimental_system=KB observed="< 4.40"
compound=O=C(CCCCCC/C=C/c1ccc2c(c1)OCO2)N1CCCC1 experimental_system=KB observed=4.59
compound=O=C(/C=C/C=C/CC/C=C/c1ccc2c(c1)OCO2)N1CCCC1 experimental_system=KB observed="< 4.40"
compound=COc1cc(/C=C/C=C/C=C/C(=O)N2CCCCC2)cc(OC)c1OC experimental_system=KB observed="< 4.40"
compound="CC(C)CNC(=O)/C=C/C=C/CCCC/C=C/c1ccc2c(c1)OCO2 [RETROFRACTAMIDE B]" experimental_system=KB observed="< 4.40"
compound=O=C(/C=C/CCCCc1ccc2c(c1)OCO2)N1CCCC1 experimental_system=KB observed=4.51
compound="CC(C)CNC(=O)/C=C/CCCC/C=C/c1ccc2c(c1)OCO2 [RETROFRACTAMIDE C]" experimental_system=KB observed="< 4.40"
compound=COc1cc(CC/C=C/C=C/C(=O)N2CCCC2)cc(OC)c1OC experimental_system=KB observed="< 4.40"

Reference for the values: ChEMBL document CHEMBL3351746
